Test system: SiHa
assay text: MTT antiproliferative assay, SiHa
Format: cell-based, human
stated conditions: Homo sapiens, SiHa, 30 µM, 72 h
endpoint label: inhibition at 30 µM (%)
One number for each entry, in %.

Solved entries (count: 2):
| compound | experimental target | inhibition at 30 µM, % |
| --- | --- | --- |
| CCCCOC1(c2cc(=O)c3c(O)cc(O)cc3o2)C=CC(=O)C=C1 [compound 10, 1′-O-butyl protoapigenone, reference compound] | SiHa | 96.3 |
| CN(C)C(=O)Oc1cc2c(c(-c3ccccc3)c1)[C@H]1CC[C@@]3(C)C(=O)CC[C@H]3[C@@H]1CC2 [13a] | SiHa | 41 |

Problem: # query: inhibition at 30 µM of entry CCCCOC1(c2cc(=O)c3c(Oc4ccc(C(C)(C)C)cc4)cc(O)cc3o2)C=CC(=O)C=C1 [17c]
Result: 96.2
